Each recorded value in this set is attributed to patent US20230151049A1.

protocol.text: in vivo
setup.conditions: male, Wistar Han, rat, in vivo; day 84; single IM 63 mg/kg; read-out: Mean concentration of Example 26A
test.readout: concentration at 84 day (ng/mL)
// return numeric value only (unit: ng/mL, not printed)

Could you share which concentration at 84 day value was measured for C#C[C@]1(COP(=O)(N[C@@H](Cc2ccccc2)C(=O)OC(CCCCCCCCCCC)CCCCCCCCCCC)Oc2ccccc2)O[C@@H](n2cnc3c(N)nc(F)nc32)C[C@@H]1O (single isomer, unassigned) [Example 26A] ?
7.43

###

protocol.text: in vivo
setup.conditions: male, Wistar Han, rat, in vivo; day 7; single IM Example 43A 60 mg/kg; read-out: Mean concentration of Example 43A
test.readout: concentration at 7 day (ng/mL)
// return numeric value only (unit: ng/mL, not printed)

Could you share which concentration at 7 day value was measured for C#C[C@]1(COP(=O)(N[C@@H](Cc2ccccc2)C(=O)OCCCCCCCCCCCCCCCCCCCC)Oc2ccccc2)O[C@@H](n2cnc3c(N)nc(F)nc32)C[C@@H]1O (single isomer, unassigned) [Example 43A] ?
25.4
